Where do the numbers come from? From ChEMBL document CHEMBL3988442.

Provide the recorded Percent Effect for the entries that follow.
- System: Wolbachia pipientis
- protocol text: Anti-Wolbachia Cell-Based Screen
- Format: functional
- Parameters: scale not given: in the data most compounds retested in dose-response had high values
- setup conditions: 5 µM
Out of some 48,000 compounds screened, about 13,000 (27%) showed an effect of 50% or more. The list shows a part of the results.
One number for each entry, in %.

Solved entries:
INSERT INTO results (compound, observation_type, unit, value) VALUES
  ('OC[C@@H]1CN2CCN(c3ccccn3)C[C@@H]2[C@H]1c1ccccc1', 'Percent Effect', '%', 91.03),
  ('Cc1ccc2c(c1)C1(CCNCC1)CC2NCCO.Cl.Cl (stereo not drawn)', 'Percent Effect', '%', 90.17),
  ('O=C(N[C@H]1CN(Cc2cccs2)[C@@H]2CCCO[C@H]12)c1cccnc1.O=C(O)C(F)(F)F.O=C(O)C(F)(F)F', 'Percent Effect', '%', -1.494),
  ('COc1ccc2c(c1)C1(CCNCC1)CC2NC1CC1.Cl.Cl (stereo not drawn)', 'Percent Effect', '%', 123.6),
  ('COCCn1cncc1CN1CCC(C(C)=O)(c2ccccc2)CC1', 'Percent Effect', '%', -9.89);

Value sought for every listed compound: Percent Effect.
1. Cl.Cl.Fc1ccc2c(c1)C1(CCNCC1)CC2NC1CC1 (stereo not drawn)
2. COc1ncccc1CN1CC[C@H]2O[C@H](c3nnc(C)o3)CC[C@H]21
3. CC(C)NC1CC2(CCNCC2)c2cc(F)ccc21.Cl.Cl (stereo not drawn)
4. CN1CCN2C[C@@H](CO)[C@H](c3ccccc3)[C@H]2C1

1: 108.3; 2: -0.9405; 3: 1.689; 4: 108.7

---

- Tested on: Wolbachia pipientis
- protocol text: Anti-Wolbachia Cell-Based Screen
- Format: functional
- Design: scale not given: in the data most compounds retested in dose-response had high values
- setup conditions: 5 µM
Hit rate of the full screen: of about 48,000 compounds, about 13,000 (27%) showed an effect of 50% or more. This is one part of the list.
Kindly supply the reported Percent Effect values for the records listed here.
One number for each entry, in %.

Worked examples follow.
INSERT INTO measurements (compound, unit, value) VALUES
  ('O=C(O)C(F)(F)F.O=C(c1ccc[nH]1)N1CCC2(CCCN2Cc2cccnc2)CC1', '%', -12.51),
  ('COCCN1CCCC12CCN(c1ncccn1)CC2.O=C(O)C(F)(F)F', '%', -7.716),
  ('Cc1ccc(CN2CC[C@H]3[C@H]2CC(=O)N3c2cccnc2)o1.O=C(O)C(F)(F)F.O=C(O)C(F)(F)F', '%', 1.465),
  ('O=C(c1cccnc1-n1cncn1)N1CCC(Nc2ccccc2)CC1', '%', 0.1986),
  ('COCCN1CCC12CCN(C(=O)Cc1cccs1)C2.O=C(O)C(F)(F)F (stereo not given)', '%', 10.38);

Go through the list and state Percent Effect for each entry.
1. O=C(C1CC(=O)N(c2ccccc2)C1)N1CCC2(CC1)OCCO2 (stereo not given)
2. CCN1CCCC12CCCN(c1ncccn1)C2.O=C(O)C(F)(F)F (stereo not given)
3. COCCN1CCC12CCN(C(=O)c1ccc(C)nc1)C2.O=C(O)C(F)(F)F (stereo not given)
4. O=C(c1cnc(-c2ccccc2)s1)N1CCC2(CC1)OCCO2
5. O=C(c1cccc(-n2cnnn2)c1)N1CCC2(CC1)OCCO2

1. -2.385
2. 1.763
3. 107.4
4. -4.517
5. 106.4
